In this section, each of the compounds is paired with its reported MIC.
# Tested on: Pseudomonas aeruginosa ATCC 27853
# Format: cell-based
# Measurement Parameters: ATCC 27853
Bridge positions count the residues as written; N and C are the ends. Square brackets hold non-standard residues; d marks the D form. Peptide text beside a SMILES is read from it. * marks the point of attachment. Heptanoyl(6-Me) = CC(C)CCCCC(=O)*; X1 = CC[C@H](C)CCCCC(=O)*; Octanoyl = CCCCCCCC(=O)*; Orn = NCCC[C@H](N)C(=O)O; Dab = NCC[C@H](N)C(=O)O

Some compounds with recorded MIC:
>>> result("CC(C)CCCCC(=O)N[C@@H](CCN)C(=O)N[C@H](C(=O)N[C@H](CO)C(=O)N[C@H]1CCNC(=O)[C@H]([C@@H](C)O)NC(=O)[C@H](CCN)NC(=O)[C@H](CCN)NC(=O)[C@H]([C@@H](C)O)NC(=O)[C@@H](Cc2ccccc2)NC(=O)[C@H](CCCN)NC1=O)[C@@H](C)O [Compound 67] ({Heptanoyl(6-Me)}-[Dab]T[dS][Dab][Orn][dF]T[Dab][Dab]T; lactam 4-C)")
"64 µg/mL"
>>> result("CCCCCCCC(=O)N[C@@H](CCN)C(=O)N[C@H](C(=O)N[C@@H](CCCN)C(=O)N[C@H]1CCNC(=O)[C@H]([C@@H](C)O)NC(=O)[C@H](CCN)NC(=O)[C@H](CCN)NC(=O)[C@H](CC(C)C)NC(=O)[C@@H](Cc2ccccc2)NC(=O)[C@H](CCN)NC1=O)[C@@H](C)O [Compound 48] (Octanoyl-[Dab]T[Orn][Dab][Dab][dF]L[Dab][Dab]T; lactam 4-C)")
"≤0.03 µg/mL"

Consider the record given below.
Sample CC[C@H](C)CCCCC(=O)N[C@@H](CCN)C(=O)N[C@H](C(=O)N[C@@H](CCCN)C(=O)N[C@H]1CCNC(=O)[C@H]([C@@H](C)O)NC(=O)[C@H](CCN)NC(=O)[C@H](CCN)NC(=O)[C@H]([C@@H](C)O)NC(=O)[C@@H](Cc2ccccc2)NC(=O)[C@H](CCN)NC1=O)[C@@H](C)O [Compound 26] (X1-[Dab]T[Orn][Dab][Dab][dF]T[Dab][Dab]T; lactam 4-C) — what was its MIC?
≤0.03 µg/mL

----------
# Test system: Pseudomonas aeruginosa PAE19-3
# Type: cell-based
# Measurement Parameters: PAE19-3
# Experimental: The minimal inhibitory concentration (MIC) was determined by the broth microdilution method according to the recommended procedures of the Clinical and Laboratory Standards Institute (CLSI). An appropriate amount of the cyclic lipopeptide compounds prepared in Examples 1-120 and the reference standards were weighed and dissolved in sterile pure water. […]
Bridge positions count the residues as written; N and C are the ends. Square brackets hold non-standard residues; d marks the D form. Peptide text beside a SMILES is read from it. * marks the point of attachment. Heptanoyl(6-Me) = CC(C)CCCCC(=O)*; Sulfomethyl = O=S(=O)(O)C*; dOrn = NCCC[C@@H](N)C(=O)O; Nonanoyl = CCCCCCCCC(=O)*; X1 = CC[C@H](C)CCCCC(=O)*; dDab = NCC[C@@H](N)C(=O)O; Heptanoyl = CCCCCCC(=O)*; Octanoyl = CCCCCCCC(=O)*; Orn = NCCC[C@H](N)C(=O)O; Dab = NCC[C@H](N)C(=O)O; Dap = NC[C@H](N)C(=O)O
Measured Attribute: MIC

Some compounds with recorded MIC:
>>> result("CC(C)CCCCC(=O)N[C@@H](CCN)C(=O)N[C@H](C(=O)N[C@H](CCN)C(=O)N[C@H]1CCNC(=O)[C@H]([C@@H](C)O)NC(=O)[C@H](CCN)NC(=O)[C@H](CCN)NC(=O)[C@H]([C@@H](C)O)NC(=O)[C@@H](Cc2ccccc2)NC(=O)[C@H](CCN)NC1=O)[C@@H](C)O [Compound 12] ({Heptanoyl(6-Me)}-[Dab]T[dDab][Dab][Dab][dF]T[Dab][Dab]T; lactam 4-C)")
"0.5 µg/mL"
>>> result("CCCCCCCC(=O)N[C@@H](CCN)C(=O)N[C@H](C(=O)N[C@H](CCN)C(=O)N[C@H]1CCNC(=O)[C@H]([C@@H](C)O)NC(=O)[C@H](CCN)NC(=O)[C@H](CCN)NC(=O)[C@H]([C@@H](C)O)NC(=O)[C@@H](Cc2ccccc2)NC(=O)[C@H](CCN)NC1=O)[C@@H](C)O [Compound 13] (Octanoyl-[Dab]T[dDab][Dab][Dab][dF]T[Dab][Dab]T; lactam 4-C)")
"1 µg/mL"
>>> result("CC[C@H](C)CCCCC(=O)N[C@@H](CCN)C(=O)N[C@H](C(=O)N[C@H](CO)C(=O)N[C@H]1CCNC(=O)[C@H]([C@@H](C)O)NC(=O)[C@H](CN)NC(=O)[C@H](CCN)NC(=O)[C@H]([C@@H](C)O)NC(=O)[C@@H](Cc2ccccc2)NC(=O)[C@H](CCN)NC1=O)[C@@H](C)O [Compound 81] (X1-[Dab]T[dS][Dab][Dab][dF]T[Dab][Dap]T; lactam 4-C)")
"64 µg/mL"
>>> result("CCCCCCC(=O)N[C@@H](CCN)C(=O)N[C@H](C(=O)N[C@@H](CN)C(=O)N[C@H]1CCNC(=O)[C@H]([C@@H](C)O)NC(=O)[C@H](CCN)NC(=O)[C@H](CCN)NC(=O)[C@H](CC(C)C)NC(=O)[C@@H](Cc2ccccc2)NC(=O)[C@H](CCN)NC1=O)[C@@H](C)O [Compound 39] (Heptanoyl-[Dab]T[Dap][Dab][Dab][dF]L[Dab][Dab]T; lactam 4-C)")
"0.5 µg/mL"
>>> result("CCCCCCC(=O)N[C@@H](CCN)C(=O)N[C@H](C(=O)N[C@H](CO)C(=O)N[C@H]1CCNC(=O)[C@H]([C@@H](C)O)NC(=O)[C@H](CN)NC(=O)[C@H](CCN)NC(=O)[C@H]([C@@H](C)O)NC(=O)[C@@H](Cc2ccccc2)NC(=O)[C@H](CCN)NC1=O)[C@@H](C)O [Compound 84] (Heptanoyl-[Dab]T[dS][Dab][Dab][dF]T[Dab][Dap]T; lactam 4-C)")
"64 µg/mL"
>>> result("CC[C@H](C)CCCCC(=O)N[C@@H](CCCN)C(=O)N[C@H](C(=O)N[C@H](CO)C(=O)N[C@H]1CCNC(=O)[C@H]([C@@H](C)O)NC(=O)[C@H](CCN)NC(=O)[C@H](CCN)NC(=O)[C@H]([C@@H](C)O)NC(=O)[C@@H](Cc2ccccc2)NC(=O)[C@H](CCN)NC1=O)[C@@H](C)O [Compound 56] (X1-[Orn]T[dS][Dab][Dab][dF]T[Dab][Dab]T; lactam 4-C)")
"4 µg/mL"
>>> result("CC[C@H](C)CCCCC(=O)N[C@@H](CCN)C(=O)N[C@H](C(=O)N[C@H](CCCN)C(=O)N[C@H]1CCNC(=O)[C@H]([C@@H](C)O)NC(=O)[C@H](CCN)NC(=O)[C@H](CCN)NC(=O)[C@H]([C@@H](C)O)NC(=O)[C@@H](Cc2ccccc2)NC(=O)[C@H](CCN)NC1=O)[C@@H](C)O [Compound 21] (X1-[Dab]T[dOrn][Dab][Dab][dF]T[Dab][Dab]T; lactam 4-C)")
"1 µg/mL"
>>> result("CCCCCCCC(=O)N[C@@H](CCN)C(=O)N[C@H](C(=O)N[C@H](CO)C(=O)N[C@H]1CCNC(=O)[C@H]([C@@H](C)O)NC(=O)[C@H](CCN)NC(=O)[C@H](CN)NC(=O)[C@H]([C@@H](C)O)NC(=O)[C@@H](Cc2ccccc2)NC(=O)[C@H](CCN)NC1=O)[C@@H](C)O [Compound 73] (Octanoyl-[Dab]T[dS][Dab][Dab][dF]T[Dap][Dab]T; lactam 4-C)")
"64 µg/mL"
>>> result("CC(C)CCCCC(=O)N[C@@H](CCN)C(=O)N[C@H](C(=O)N[C@@H](CN)C(=O)N[C@H]1CCNC(=O)[C@H]([C@@H](C)OCS(=O)(=O)O)NC(=O)[C@H](CCN)NC(=O)[C@H](CCN)NC(=O)[C@H]([C@@H](C)O)NC(=O)[C@@H](Cc2ccccc2)NC(=O)[C@H](CCN)NC1=O)[C@@H](C)O [Compound 115] ({Heptanoyl(6-Me)}-[Dab]T[Dap][Dab][Dab][dF]T[Dab][Dab]T(Sulfomethyl); lactam 4-C)")
"0.25 µg/mL"

Consider the record given below.
Sample CCCCCCCCC(=O)N[C@@H](CCN)C(=O)N[C@H](C(=O)N[C@H](CCCN)C(=O)N[C@H]1CCNC(=O)[C@H]([C@@H](C)O)NC(=O)[C@H](CCN)NC(=O)[C@H](CCN)NC(=O)[C@H]([C@@H](C)O)NC(=O)[C@@H](Cc2ccccc2)NC(=O)[C@H](CCN)NC1=O)[C@@H](C)O [Compound 25] (Nonanoyl-[Dab]T[dOrn][Dab][Dab][dF]T[Dab][Dab]T; lactam 4-C) — what was its MIC?
2 µg/mL
